# target_entity: Hsp90
# experimental_protocol: SPR
value_kind: pKd
One number for each entry, as −log10 of the molar value.

Ask: Item: CC(C)=CCCC1(C)C=Cc2c(c(C)cc3c2[nH]c2cc(O)ccc23)O1 (stereo not shown) [mahanine] Test system: Hsp90 Read-out: pKd Value: ?
Reply: 5.30
